Tested on: SNB-19
Assay: Cytotoxicity against human SNB19 cells
Assay type: functional, cell-based
experimental.readout: IC50 (µg/mL)
Write the answer as a number in µg/mL, unit excluded.

Ask: Name the recorded IC50 for C=C1CCC[C@H]2[C@@](CC/C(C)=C/C[C@H]3OC(=O)CC3CO)(COC(C)=O)[C@@H](C)CC[C@]12C (some centres undefined) .
Reply: 35

Ask: Name the recorded IC50 for C=C1CCC[C@H]2[C@](C)(CC/C(C)=C/C=C/C3=CC(=O)OC3O)[C@@H](C)CC[C@]12C (some centres undefined) [PALAUOLIDE] .
Reply: 52.1

Ask: Name the recorded IC50 for C=C1CCC[C@@H]2[C@@](C)(CC/C(C)=C/C[C@@H](O)C3=CC(=O)OC3O)[C@@H](C)CC[C@@]12C (some centres undefined) .
Reply: 2.1

Ask: Name the recorded IC50 for `C=C1CCC[C@H]2[C@](C)(CC/C(C)=C/C[C@H]3OC(=O)C=C3CO)[C@@H](C)CC[C@]12C` .
Reply: 40
